Some binders, each annotated with its measured Ki.
targetOfAssay: pKal catalytic domain Mutant 4 (human) (UniProt P03952)
Sequence (P03952 391-638, change not shown): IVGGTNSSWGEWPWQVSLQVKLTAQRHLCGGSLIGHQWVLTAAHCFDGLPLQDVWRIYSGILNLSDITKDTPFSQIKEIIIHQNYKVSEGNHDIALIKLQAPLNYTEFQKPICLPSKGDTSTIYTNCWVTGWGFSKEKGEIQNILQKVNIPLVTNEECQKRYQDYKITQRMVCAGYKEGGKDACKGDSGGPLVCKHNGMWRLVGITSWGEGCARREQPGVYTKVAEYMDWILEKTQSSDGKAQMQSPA
methodSummary: equilibrium Ki,app, fluorogenic substrate, tight binding fit
Give your result in nM as a bare value.

[[record]]
binder = "X115-F02 (Fab, V domains shown) VH: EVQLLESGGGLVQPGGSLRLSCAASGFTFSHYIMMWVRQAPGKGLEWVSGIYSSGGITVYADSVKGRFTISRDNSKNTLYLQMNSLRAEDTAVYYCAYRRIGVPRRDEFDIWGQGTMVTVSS VL: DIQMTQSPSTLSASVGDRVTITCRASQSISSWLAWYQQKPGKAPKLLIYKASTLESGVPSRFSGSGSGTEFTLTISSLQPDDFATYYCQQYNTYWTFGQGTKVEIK"
unitlabel = "nM"
testvalue = 0.1


Now consider a different binder.
Form: binder = X115-D01 (antibody, V domains shown) VH: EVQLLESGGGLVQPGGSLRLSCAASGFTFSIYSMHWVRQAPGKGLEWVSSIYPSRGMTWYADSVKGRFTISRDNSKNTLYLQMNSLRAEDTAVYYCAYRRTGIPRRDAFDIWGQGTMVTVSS VL: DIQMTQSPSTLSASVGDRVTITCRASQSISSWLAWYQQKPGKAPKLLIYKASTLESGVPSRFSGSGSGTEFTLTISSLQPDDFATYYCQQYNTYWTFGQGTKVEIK ; Ki = 0.12
